Items are presented alongside their recorded Ratio IC50.
- Species on record: Homo sapiens
- experiment notes: Selectivity ratio of IC50 for human SIRT1 to IC50 for recombinant human N-terminal His6-tagged/SUMO-fused SIRT2 (38 to 356 residues) expressed in Escherichia coli BL21
readout label: Ratio IC50

1) CCCCCCCCNC(=S)NCCCC[C@H](NC(=O)OCc1ccccc1)C(=O)Nc1cccc(O)c1 = 8
2) CCCCCNC(=S)NCCCC[C@H](NC(=O)OCc1ccccc1)C(=O)Nc1cccc(O)c1 = 34
3) CCCCCCCCCCNC(=S)NCCCC[C@H](NC(=O)OCc1ccccc1)C(=O)Nc1cccc(O)c1 = 12
4) CCCCCCCCCCCCNC(=S)NCCCC[C@H](NC(=O)OCc1ccccc1)C(=O)Nc1cccc(O)c1 = 17

====

- Tested on: CCD-841CoN
- experiment notes: Growth inhibition of human CCD-841-CoN cells after 72 hrs by CellTiter-Blue assay
- Format: cell-based
readout label: GI50

1) CCCCCCCCCCNC(=S)NCCCC[C@H](NC(=O)OCc1ccccc1)C(=O)Nc1ccccc1 = 47.4 µM
